Value source: patent US10168342B2

Molecular target: AEA-DA lipid probe targets in Neuro2a cells (Mus musculus)
Sequence (Q07646 1-335): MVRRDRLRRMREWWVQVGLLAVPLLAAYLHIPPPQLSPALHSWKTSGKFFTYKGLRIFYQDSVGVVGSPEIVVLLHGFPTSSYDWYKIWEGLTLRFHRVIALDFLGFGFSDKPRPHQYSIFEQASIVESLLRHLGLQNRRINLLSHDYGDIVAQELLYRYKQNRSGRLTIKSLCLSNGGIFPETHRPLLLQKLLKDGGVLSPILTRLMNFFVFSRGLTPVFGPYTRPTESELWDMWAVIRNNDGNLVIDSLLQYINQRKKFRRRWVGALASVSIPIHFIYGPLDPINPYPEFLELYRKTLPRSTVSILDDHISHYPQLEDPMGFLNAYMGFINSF
Settings: competitor 25 μM
Parameter SILAC ratio Mest: see the listing below.
# output: bare number, no unit

Look over these answered cases.
CN1CCN(C(=O)c2c(-c3ccccc3)c3cc([N+](=O)[O-])ccc3n2C)CC1 [KML110] | 1.3
O=C(/C=C/c1cccnc1)NCCCCC1CCN(C(=O)c2ccccc2)CC1 [FK-866, reference compound] | 1.2
CN1CCN(C(=O)c2[nH]c3ccc([N+](=O)[O-])cc3c2-c2ccccc2)CC1 [MJN228] | 1.4

Input C=CCN(C)CCCCCCOc1ccc(C(=O)c2ccc(Br)cc2)c(F)c1 [Ro 48-8071, reference compound] , output reported SILAC ratio Mest. 1.2

====

Parameter SILAC ratio Naglu: see the listing below.
Biological target: AEA-DA lipid probe targets in Neuro2a cells (Mus musculus)
Sequence (O88325 22-739): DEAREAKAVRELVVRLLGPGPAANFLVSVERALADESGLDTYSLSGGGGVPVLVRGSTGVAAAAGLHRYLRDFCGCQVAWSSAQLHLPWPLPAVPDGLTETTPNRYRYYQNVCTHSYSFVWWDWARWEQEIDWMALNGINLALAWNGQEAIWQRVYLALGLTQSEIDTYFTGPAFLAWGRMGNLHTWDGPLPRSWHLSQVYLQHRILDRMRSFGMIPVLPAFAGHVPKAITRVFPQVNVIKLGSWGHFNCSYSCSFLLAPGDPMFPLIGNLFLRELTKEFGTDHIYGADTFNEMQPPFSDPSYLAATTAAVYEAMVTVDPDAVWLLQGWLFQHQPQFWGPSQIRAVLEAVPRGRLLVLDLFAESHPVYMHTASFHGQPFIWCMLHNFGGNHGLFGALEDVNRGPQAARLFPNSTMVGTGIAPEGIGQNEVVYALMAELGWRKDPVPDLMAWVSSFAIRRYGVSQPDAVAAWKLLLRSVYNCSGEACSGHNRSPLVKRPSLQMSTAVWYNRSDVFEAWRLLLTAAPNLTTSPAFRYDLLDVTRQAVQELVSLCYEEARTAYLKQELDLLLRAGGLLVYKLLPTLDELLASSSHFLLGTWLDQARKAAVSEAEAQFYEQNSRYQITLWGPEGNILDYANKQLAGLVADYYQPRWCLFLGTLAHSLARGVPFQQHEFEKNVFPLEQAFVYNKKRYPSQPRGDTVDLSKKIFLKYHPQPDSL
Settings: competitor 25 μM
# output: bare number, no unit

CN1CCN(C(=O)c2[nH]c3ccc([N+](=O)[O-])cc3c2-c2ccccc2)CC1 | 1.3
O=C(/C=C/c1cccnc1)NCCCCC1CCN(C(=O)c2ccccc2)CC1 [FK-866, reference compound] | 1.3

Input CN1CCN(C(=O)c2c(-c3ccccc3)c3cc([N+](=O)[O-])ccc3n2C)CC1 , output reported SILAC ratio Naglu. 1.4

Input C=CCN(C)CCCCCCOc1ccc(C(=O)c2ccc(Br)cc2)c(F)c1 [Ro 48-8071, reference compound] , output reported SILAC ratio Naglu. 0.3

====

biological target: AEA-DA lipid probe targets in Neuro2a cells (Mus musculus, UniProt Q9DCH4); conditions: competitor 25 μM
Sequence (Q9DCH4 whole entry): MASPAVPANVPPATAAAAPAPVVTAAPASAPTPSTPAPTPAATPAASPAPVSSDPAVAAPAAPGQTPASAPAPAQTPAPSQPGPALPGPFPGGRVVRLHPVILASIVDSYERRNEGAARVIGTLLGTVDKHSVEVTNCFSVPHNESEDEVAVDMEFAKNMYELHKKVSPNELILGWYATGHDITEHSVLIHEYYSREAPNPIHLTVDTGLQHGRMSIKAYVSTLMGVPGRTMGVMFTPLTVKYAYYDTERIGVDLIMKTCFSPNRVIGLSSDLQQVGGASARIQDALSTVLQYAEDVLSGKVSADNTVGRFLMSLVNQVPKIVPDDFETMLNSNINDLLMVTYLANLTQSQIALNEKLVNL
Parameter SILAC ratio Eif3f: see the listing below.
# output: bare number, no unit

Look over these answered cases.
O=C(/C=C/c1cccnc1)NCCCCC1CCN(C(=O)c2ccccc2)CC1 [FK-866, reference compound] | 1.3
CN1CCN(C(=O)c2[nH]c3ccc([N+](=O)[O-])cc3c2-c2ccccc2)CC1 | 1.0
CN1CCN(C(=O)c2c(-c3ccccc3)c3cc([N+](=O)[O-])ccc3n2C)CC1 | 1.3

Please turn your attention to the following entry.
Input C=CCN(C)CCCCCCOc1ccc(C(=O)c2ccc(Br)cc2)c(F)c1 [Ro 48-8071, reference compound] , output reported SILAC ratio Eif3f. 0.9

====

Parameter SILAC ratio ptplad1: see the listing below.
target: AEA-DA lipid probe targets in Neuro2a cells (Mus musculus, UniProt Q8K2C9); settings: competitor 25 μM
Sequence (Q8K2C9 whole entry): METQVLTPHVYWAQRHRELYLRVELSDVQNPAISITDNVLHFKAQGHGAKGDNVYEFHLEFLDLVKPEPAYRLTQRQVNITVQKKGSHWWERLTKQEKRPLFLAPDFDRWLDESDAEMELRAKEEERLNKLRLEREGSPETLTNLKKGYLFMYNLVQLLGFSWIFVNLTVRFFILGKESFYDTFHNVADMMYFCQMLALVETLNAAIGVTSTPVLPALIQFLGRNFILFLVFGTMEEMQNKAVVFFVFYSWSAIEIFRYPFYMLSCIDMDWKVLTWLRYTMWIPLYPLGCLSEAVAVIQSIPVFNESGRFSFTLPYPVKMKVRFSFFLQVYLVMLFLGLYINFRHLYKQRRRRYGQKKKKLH
# output: bare number, no unit

Input CN1CCN(C(=O)c2[nH]c3ccc([N+](=O)[O-])cc3c2-c2ccccc2)CC1 , output reported SILAC ratio ptplad1. 1.7

Input O=C(/C=C/c1cccnc1)NCCCCC1CCN(C(=O)c2ccccc2)CC1 [FK-866, reference compound] , output reported SILAC ratio ptplad1. 1.2

Input CN1CCN(C(=O)c2c(-c3ccccc3)c3cc([N+](=O)[O-])ccc3n2C)CC1 , output reported SILAC ratio ptplad1. 1.7

Input C=CCN(C)CCCCCCOc1ccc(C(=O)c2ccc(Br)cc2)c(F)c1 [Ro 48-8071, reference compound] , output reported SILAC ratio ptplad1. 1.4

====

Target: AEA-DA lipid probe targets in Neuro2a cells (Mus musculus)
Sequence (Q8C0L0 21-335): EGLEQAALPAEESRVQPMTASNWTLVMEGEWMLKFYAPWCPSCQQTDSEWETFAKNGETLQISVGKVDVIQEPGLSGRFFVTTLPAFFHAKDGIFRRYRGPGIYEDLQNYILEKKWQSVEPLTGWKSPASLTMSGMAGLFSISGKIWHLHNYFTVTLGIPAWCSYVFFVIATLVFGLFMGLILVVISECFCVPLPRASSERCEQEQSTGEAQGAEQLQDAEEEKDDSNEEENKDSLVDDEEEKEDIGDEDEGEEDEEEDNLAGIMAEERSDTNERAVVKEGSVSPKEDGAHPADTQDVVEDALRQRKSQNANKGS
Conditions: competitor 25 μM
QUANTITY_NAME: SILAC ratio Tmx4
# output: bare number, no unit

CN1CCN(C(=O)c2c(-c3ccccc3)c3cc([N+](=O)[O-])ccc3n2C)CC1 [KML110] | 1.4
CN1CCN(C(=O)c2[nH]c3ccc([N+](=O)[O-])cc3c2-c2ccccc2)CC1 [MJN228] | 1.3
O=C(/C=C/c1cccnc1)NCCCCC1CCN(C(=O)c2ccccc2)CC1 [FK-866, reference compound] | 1.0

Please turn your attention to the following entry.
Input C=CCN(C)CCCCCCOc1ccc(C(=O)c2ccc(Br)cc2)c(F)c1 [Ro 48-8071, reference compound] , output reported SILAC ratio Tmx4. 1.2

====

Parameter SILAC ratio, Slc2a3: see the listing below.
target: AEA-DA lipid probe targets in Neuro2a cells (Mus musculus); details: competitor 25 μM
# output: bare number, no unit

Look over these answered cases.
CN1CCN(C(=O)c2c(-c3ccccc3)c3cc([N+](=O)[O-])ccc3n2C)CC1 | 1.2
CN1CCN(C(=O)c2[nH]c3ccc([N+](=O)[O-])cc3c2-c2ccccc2)CC1 | 1.4
O=C(/C=C/c1cccnc1)NCCCCC1CCN(C(=O)c2ccccc2)CC1 [FK-866, reference compound] | 1.1

Provide SILAC ratio, Slc2a3, tested on AEA-DA lipid probe targets in Neuro2a cells (Mus musculus), for C=CCN(C)CCCCCCOc1ccc(C(=O)c2ccc(Br)cc2)c(F)c1 [Ro 48-8071, reference compound] . 1.0

====

target: AEA-DA lipid probe targets in Neuro2a cells (Mus musculus); conditions: competitor 25 μM
QUANTITY_NAME: SILAC ratio Idh2
# output: bare number, no unit

Look over these answered cases.
CN1CCN(C(=O)c2c(-c3ccccc3)c3cc([N+](=O)[O-])ccc3n2C)CC1 | 1.3
O=C(/C=C/c1cccnc1)NCCCCC1CCN(C(=O)c2ccccc2)CC1 [FK-866, reference compound] | 1.2
CN1CCN(C(=O)c2[nH]c3ccc([N+](=O)[O-])cc3c2-c2ccccc2)CC1 | 1.4

Input C=CCN(C)CCCCCCOc1ccc(C(=O)c2ccc(Br)cc2)c(F)c1 [Ro 48-8071, reference compound] , output reported SILAC ratio Idh2. 0.9

====

target: AEA-DA lipid probe targets in Neuro2a cells (Mus musculus, UniProt P10404); conditions: competitor 25 μM
Sequence (P10404 33-641): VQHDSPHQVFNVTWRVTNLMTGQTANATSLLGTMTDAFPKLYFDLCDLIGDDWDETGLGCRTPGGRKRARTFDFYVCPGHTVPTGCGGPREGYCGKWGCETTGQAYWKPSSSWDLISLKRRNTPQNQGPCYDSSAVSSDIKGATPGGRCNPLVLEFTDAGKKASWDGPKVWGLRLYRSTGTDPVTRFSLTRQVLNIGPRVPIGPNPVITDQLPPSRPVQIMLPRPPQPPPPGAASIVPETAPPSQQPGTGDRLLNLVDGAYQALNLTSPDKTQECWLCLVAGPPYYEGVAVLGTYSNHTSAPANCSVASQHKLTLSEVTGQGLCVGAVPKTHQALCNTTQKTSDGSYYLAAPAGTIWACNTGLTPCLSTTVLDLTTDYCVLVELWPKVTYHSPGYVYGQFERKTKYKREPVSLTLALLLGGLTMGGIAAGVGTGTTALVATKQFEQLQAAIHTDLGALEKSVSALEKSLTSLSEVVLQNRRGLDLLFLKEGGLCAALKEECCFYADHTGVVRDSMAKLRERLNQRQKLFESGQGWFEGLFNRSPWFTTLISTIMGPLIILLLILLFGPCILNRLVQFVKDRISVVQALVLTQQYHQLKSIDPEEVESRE
QUANTITY_NAME: SILAC ratio MLV-related

Look over these answered cases.
C=CCN(C)CCCCCCOc1ccc(C(=O)c2ccc(Br)cc2)c(F)c1 [Ro 48-8071, reference compound] | 1.0
CN1CCN(C(=O)c2c(-c3ccccc3)c3cc([N+](=O)[O-])ccc3n2C)CC1 | 1.2

Input CN1CCN(C(=O)c2[nH]c3ccc([N+](=O)[O-])cc3c2-c2ccccc2)CC1 , output reported SILAC ratio MLV-related. 1.8

Input O=C(/C=C/c1cccnc1)NCCCCC1CCN(C(=O)c2ccccc2)CC1 [FK-866, reference compound] , output reported SILAC ratio MLV-related. 1.1
